Tested on: CCRIS mutagenicity, Ames/micronucleus/aberration tests
test_summary: CCRIS mutagenicity studies
measurement_parameters: Test System: Ames Salmonella typhimurium; Strain/Indicator: TA98; Metabolic Activation: None; Method: Preincubation
Active and inactive are the calls of the source. The rule behind the calls is not given here.
Outcome codes: 1 (active), -1 (inactive)

# structure_notation, label
data = [
    ("O=C1NC(=O)c2ccccc21", -1),
    ("C=Cc1ccccn1", -1),
    ("CC(C)(C)c1ccc(C(=O)O)cc1", -1),
    ("CN=c1ccc2nc3ccc(N)cc3sc-2c1", 1),
    ("Nc1ccc(-c2cc([N+](=O)[O-])c(N)c(Cl)c2Cl)cc1", 1),
    ("ClC(Cl)(Cl)c1nc(-c2ccc3c(c2)OCO3)nc(C(Cl)(Cl)Cl)n1", -1),
    ("C=CC(=C)CCC=C(C)C", -1),
    ("O=C(O)C(Br)Br", -1),
    ("CCOC(=O)CC(=O)OCC", -1),
]
